System: Echinochloa crus-galli (ECHCG)
Assay: A. Herbicidal pre-emergence efficacy, ECHCG
Format: in vivo
Conditions: 1280 g/ha; scored visually after about 3 weeks vs untreated controls
value-type: Pre-emergence efficacy against ECHCG

• O=S(=O)(CCC(F)(F)F)Oc1c(Cl)cccc1Oc1ncc(Cl)cn1 [Example I-38] = 100%
• Cc1cccc(Oc2ncc(Cl)cn2)c1OS(=O)(=O)CCCC(F)(F)F [Example I-28] = 100%
• O=S(=O)(CCCCl)Oc1cccc(F)c1Oc1ncc(Cl)cn1 [Example I-13] = 100%
• Cc1cccc(Oc2ncc(F)cn2)c1OS(=O)(=O)CCCC(F)(F)F [Example I-46] = 100%

**Query** Query Pre-emergence efficacy against ECHCG on Echinochloa crus-galli (ECHCG) for O=S(=O)(CCCCl)Oc1ccccc1Oc1ncc(Cl)cn1 [Example I-2]
**Result** 100%

**Query** Query Pre-emergence efficacy against ECHCG on Echinochloa crus-galli (ECHCG) for O=[N+]([O-])c1cnc(Oc2ccccc2OS(=O)(=O)CCCCl)c(F)c1 [Example I-61]
**Result** 100%

**Query** Query Pre-emergence efficacy against ECHCG on Echinochloa crus-galli (ECHCG) for C=CCCS(=O)(=O)Oc1c(F)cccc1Oc1ncc(Cl)cn1 [Example I-50]
**Result** 100%

**Query** Query Pre-emergence efficacy against ECHCG on Echinochloa crus-galli (ECHCG) for O=S(=O)(CCl)Oc1ccccc1Oc1ncc(Cl)cn1 [Example I-9]
**Result** 100%

**Query** Query Pre-emergence efficacy against ECHCG on Echinochloa crus-galli (ECHCG) for O=S(=O)(Oc1ccccc1Oc1ncc(Cl)cn1)C1CC1 [Example I-21]
**Result** 100%

**Query** Query Pre-emergence efficacy against ECHCG on Echinochloa crus-galli (ECHCG) for O=S(=O)(CCC(F)=C(F)F)Oc1c(Cl)cccc1Oc1ncc(Cl)cn1 [Example I-73]
**Result** 90%

**Query** Query Pre-emergence efficacy against ECHCG on Echinochloa crus-galli (ECHCG) for O=S(=O)(CCCC(F)(F)F)Oc1ccccc1Oc1ncc(Cl)cn1 [Example I-10]
**Result** 100%

* * *

Test system: Kochia scoparia (KCHSC)
Assay: B. Herbicidal post-emergence efficacy, KCHSC
Assay type: in vivo
Conditions: 320 g/ha, rated visually after about 3 weeks
value-type: Post-emergence efficacy against KCHSC in %
Kindly report the value followed by its unit.

Some compounds with known Post-emergence efficacy against KCHSC in % results, for comparison:
* Cc1cccc(Oc2ncc(Cl)cn2)c1OS(=O)(=O)CC1CC(F)(F)C1 | 100%
* O=S(=O)(Oc1ccccc1Oc1ncc(Cl)cn1)C1CCCC1 | 90%
* CS(=O)(=O)Oc1ccccc1Oc1ncc(Cl)cn1 | 100%
* O=S(=O)(CCCC(F)(F)F)Oc1ccccc1Oc1ccc(Cl)cn1 | 90%

**Query** Form field: reported Post-emergence efficacy against KCHSC in % of N#Cc1cccc(Oc2ncc(Cl)cn2)c1OS(=O)(=O)CCCCl
**Result** 90%

* * *

Test system: Amaranthus retroflexus (AMARE)
Assay: A. Herbicidal pre-emergence efficacy, AMARE
Assay type: in vivo
Conditions: 80 g/ha
From the text: Seeds of mono- and dicotyledonous weed plants were placed in plastic pots in sandy loam soil (doubly sown with one species each of mono- or dicotyledonous weed plants per pot) and covered with soil. […] After about 3 weeks, the efficacy of the preparations was scored visually in comparison with untreated controls as percentages. […]
value-type: Pre-emergence efficacy against AMARE in % (%)
Answer in %, number only, no unit symbol.

* O=S(=O)(CCC(F)(F)F)Oc1ccccc1Oc1ncc(Cl)cn1 | 90
* O=S(=O)(CCC(F)(F)F)Oc1c(Cl)cccc1Oc1ncc(Br)cn1 | 90
* O=S(=O)(CCC(F)(F)F)Oc1c(F)cccc1Oc1ncc(F)cn1 | 100

**Query** Form field: reported Pre-emergence efficacy against AMARE in % of Cc1cccc(Oc2ncc(F)cn2)c1OS(=O)(=O)CCCC(F)(F)F
**Result** 100

Value source: patent US20240174618A1
